- System: colorectal tissue transcripts
- procedure_details: SAGE of normal, adenoma and cancer colorectal tissue (transcript tag counts)
- Design: species or system human
- applied_conditions: cancer library 1
Below, each entry is listed alongside its reported CA1 (SAGE tag count).
Provide a numeric answer; units are not to be included.

// CA1 (SAGE tag count) lookup, sequence = TGGCGCGTGT (chemistry not fully specified) , result: 9

// CA1 (SAGE tag count) lookup, sequence = TCACCGGTCA (chemistry not fully specified) , result: 5

// CA1 (SAGE tag count) lookup, sequence = TGATCTCTGT (chemistry not fully specified) , result: 1

// CA1 (SAGE tag count) lookup, sequence = TGGCTACTTA (chemistry not fully specified) , result: 1

// CA1 (SAGE tag count) lookup, sequence = TTATGGTGTG (chemistry not fully specified) , result: 0

// CA1 (SAGE tag count) lookup, sequence = TAAATTGCAA (chemistry not fully specified) , result: 5

Others:
// CA1 (SAGE tag count) lookup, sequence = TGAGTGACAG (chemistry not fully specified) , result: 3

// CA1 (SAGE tag count) lookup, sequence = TCAGCTGCAA (chemistry not fully specified) , result: 9

// CA1 (SAGE tag count) lookup, sequence = TTCCGCGTTC (chemistry not fully specified) , result: 2

// CA1 (SAGE tag count) lookup, sequence = TACTCGGCCA (chemistry not fully specified) , result: 1

// CA1 (SAGE tag count) lookup, sequence = TGCTCCTACC (chemistry not fully specified; the letters are possibly those of the target site) , result: 17

// CA1 (SAGE tag count) lookup, sequence = TTTCTCGTCG (chemistry not fully specified) , result: 0

Source of measurements: patent US8029764B2
